Note to self: values exactly at 6 °C are true. So melting point at or above 6 °C is true, below is false.

INSERT INTO measurements (compound, label_value) VALUES
  ('C=C(C)CCCCC', 'false'),
  ('BrCCCBr', 'false'),
  ('C[Si]1(C)O[Si](C)(C)O[Si](C)(C)O[Si](C)(C)O[Si](C)(C)O[Si](C)(C)O[Si](C)(C)O1', 'false'),
  ('C=C(C)[C@H]1CCC(C)=C[C@@H]1c1c(O)cc(CCCCC)cc1O', 'true'),
  ('COc1cccc(-c2cccc(OC)c2)c1', 'true');

Could you now look at the following compound, please?
Determine whether this compound has melting point no lower than 6 °C: ClCBr
false
